Taken from patent US7842671B1.

Reported IC50 values for a set of compounds
tested_system: Stat5:Stat5
protocol_summary: EMSA of Stat5:Stat5 DNA-binding in nuclear extracts
measurement_setup: nuclear extracts pre-incubated 30 min, mean and SD of at least 3 assays, read-out: IC50 values against STAT Dimers, Stat5:Stat5
Protocol: Nuclear extract preparation and gel shift assays. Nuclear extracts were prepared from cell lines and used for electrophoretic mobility shift assay (EMSA) as previously described (Garcia, R. et al. (1997); Yu, C. L. et al. (1995); Turkson, J. et al. (1998)). In some cases, cells were pre-treated with peptidomimetics for the indicated times (12-48 h) prior to harvesting for nuclear extract preparation. […]
Give just the number in µM; leave the unit off.

> print(dat)
                                   compound  tested.system  data.value
1  CC(C)CC(NC(=O)C(Cc1ccc(OP(=O)(O)O)cc1)NC(=O)c1ccc(C#N)cc1)C(=O)O (stereo not shown)    Stat5:Stat5         285

Which IC50 value is on record for COc1cccc(OC)c1C(=O)NC(Cc1ccc(OP(=O)(O)O)cc1)C(=O)NC(CC(C)C)C(=O)O (stereo not shown) ? 695

Cc1ncccc1C(=O)NC(Cc1ccc(OP(=O)(O)O)cc1)C(=O)NC(CC(C)C)C(=O)O (stereo not shown) ? 50

Cc1cnc(C(=O)NC(Cc2ccc(OP(=O)(O)O)cc2)C(=O)NC(CC(C)C)C(=O)O)cn1 (stereo not shown) ? 300

###

tested_system: Stat1:Stat1 (Mus musculus, UniProt P42225)
Construct: nuclear extracts (prepared from epidermal growth factor (EGF)-stimulated fibroblasts); endogenous in cells; host or cells: NIH3T3 fibroblasts stimulated with EGF
Sequence (P42225 1-749): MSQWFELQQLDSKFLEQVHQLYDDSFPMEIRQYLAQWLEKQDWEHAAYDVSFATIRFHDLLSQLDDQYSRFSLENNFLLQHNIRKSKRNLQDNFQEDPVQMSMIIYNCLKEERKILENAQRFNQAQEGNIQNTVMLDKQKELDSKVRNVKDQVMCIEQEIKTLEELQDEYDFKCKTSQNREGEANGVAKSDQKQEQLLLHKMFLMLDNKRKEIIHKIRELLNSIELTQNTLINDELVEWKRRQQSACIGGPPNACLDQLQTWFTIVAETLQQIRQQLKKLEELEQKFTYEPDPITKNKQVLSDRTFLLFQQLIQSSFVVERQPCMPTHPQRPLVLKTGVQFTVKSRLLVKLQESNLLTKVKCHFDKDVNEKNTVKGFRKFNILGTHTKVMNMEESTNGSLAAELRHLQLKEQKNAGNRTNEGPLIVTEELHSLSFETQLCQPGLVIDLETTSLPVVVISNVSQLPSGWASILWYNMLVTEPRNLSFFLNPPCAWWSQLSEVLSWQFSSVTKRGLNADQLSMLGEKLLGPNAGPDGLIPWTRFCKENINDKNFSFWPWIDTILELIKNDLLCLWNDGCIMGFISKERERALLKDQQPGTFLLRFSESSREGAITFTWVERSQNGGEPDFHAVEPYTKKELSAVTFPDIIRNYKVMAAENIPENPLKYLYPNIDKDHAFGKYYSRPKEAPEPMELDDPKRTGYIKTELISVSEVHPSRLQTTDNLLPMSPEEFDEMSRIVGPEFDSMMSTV
protocol_summary: EMSA of Stat1:Stat1 DNA-binding in nuclear extracts
Assay type: biochemical
measurement_setup: nuclear extracts pre-incubated 30 min, EMSA; mean and SD of at least 3 assays; read-out: IC50 values against STAT Dimers, Stat1:Stat1
measured_quantity: IC50 (µM)
Give just the number in µM; leave the unit off.

> print(dat)
                                   molecule  unit.symbol  data.value
1  Cc1ncccc1C(=O)NC(Cc1ccc(OP(=O)(O)O)cc1)C(=O)NC(CC(C)C)C(=O)O (stereo not drawn) [ISS 221]           µM         310

Which IC50 value is on record for COc1cccc(OC)c1C(=O)NC(Cc1ccc(OP(=O)(O)O)cc1)C(=O)NC(CC(C)C)C(=O)O (stereo not drawn) [ISS 637] ? 255

Cc1cnc(C(=O)NC(Cc2ccc(OP(=O)(O)O)cc2)C(=O)NC(CC(C)C)C(=O)O)cn1 (stereo not drawn) [ISS 493] ? 273

###

tested_system: Stat1:Stat1 (Mus musculus)
Construct: nuclear extracts (prepared from epidermal growth factor (EGF)-stimulated fibroblasts); endogenous in cells; host or cells: NIH3T3 fibroblasts stimulated with EGF
protocol_summary: EMSA of Stat1:Stat1 DNA-binding in nuclear extracts
Format: biochemical
measured_quantity: IC50 (µM)
Give just the number in µM; leave the unit off.

Which IC50 value is on record for CC(C)CC(NC(=O)C(Cc1ccc(OP(=O)(O)O)cc1)NC(=O)c1ccc(C#N)cc1)C(=O)O (stereo not shown) ? 310

###

Reported IC50 values for a set of compounds
tested_system: UniProt:P42227
protocol_summary: EMSA of Stat3 DNA-binding activity in nuclear extracts (hSIE probe)
Format: biochemical
Design: nuclear extracts (prepared from epidermal growth factor (EGF)-stimulated fibroblasts); endogenous in cells; host or cells: NIH3T3 fibroblasts stimulated with EGF
Give just the number in µM; leave the unit off.

Example results:
compound	IC50 / µM
CC(C)CC(NC(=O)C(Cc1ccc(OP(=O)(O)O)cc1)NC(=O)c1ccccc1-c1ccccc1)C(=O)O (stereo not shown)	420
CC(C)CC(NC(=O)C(Cc1ccc(OP(=O)(O)O)cc1)NC(=O)c1cnc2ccccc2c1)C(=O)O (stereo not shown)	643
CC(C)CC(NC(=O)C(Cc1ccc(OP(=O)(O)O)cc1)NC(=O)c1cccc2ccccc12)C(=O)O (stereo not shown)	410

Turning now to a further record.
Which IC50 value is on record for Cc1ccc(C(=O)NC(Cc2ccc(OP(=O)(O)O)cc2)C(=O)NC(CC(C)C)C(=O)O)cn1 (stereo not shown) ? 225

###

tested_system: Stat3 (Mus musculus, UniProt P42227)
Sequence (P42227 whole entry): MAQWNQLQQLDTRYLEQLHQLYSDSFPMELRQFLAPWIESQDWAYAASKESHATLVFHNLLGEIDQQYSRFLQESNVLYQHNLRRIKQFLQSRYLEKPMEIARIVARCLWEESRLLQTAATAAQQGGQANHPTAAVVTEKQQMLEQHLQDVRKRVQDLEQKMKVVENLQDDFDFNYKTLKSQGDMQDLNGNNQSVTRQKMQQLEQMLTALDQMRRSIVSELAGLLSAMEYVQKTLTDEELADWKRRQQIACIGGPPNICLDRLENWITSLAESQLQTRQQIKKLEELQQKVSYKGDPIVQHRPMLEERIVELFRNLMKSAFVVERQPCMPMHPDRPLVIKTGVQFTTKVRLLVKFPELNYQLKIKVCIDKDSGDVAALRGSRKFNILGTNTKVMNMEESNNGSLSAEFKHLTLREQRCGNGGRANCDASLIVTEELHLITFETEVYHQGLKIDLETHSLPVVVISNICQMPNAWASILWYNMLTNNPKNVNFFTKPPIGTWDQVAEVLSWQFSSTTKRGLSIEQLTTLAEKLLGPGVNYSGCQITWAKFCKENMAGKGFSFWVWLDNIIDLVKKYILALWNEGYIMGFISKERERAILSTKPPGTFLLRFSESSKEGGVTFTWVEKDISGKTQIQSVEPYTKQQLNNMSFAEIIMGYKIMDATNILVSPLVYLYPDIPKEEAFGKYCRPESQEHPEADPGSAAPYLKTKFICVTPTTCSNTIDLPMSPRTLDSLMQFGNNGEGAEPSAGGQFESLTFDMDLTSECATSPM
protocol_summary: EMSA of Stat3 DNA-binding activity in nuclear extracts (hSIE probe)
Type: biochemical
Set-up: nuclear extracts (prepared from epidermal growth factor (EGF)-stimulated fibroblasts); endogenous in cells; host or cells: NIH3T3 fibroblasts stimulated with EGF
measurement_setup: nuclear extracts pre-incubated 30 min, hSIE probe, EMSA; mean and SD of at least 3 assays; read-out: IC50, disruption of Stat3 DNA-binding activity
Square brackets hold non-standard residues; d marks the D form. Peptide text beside a SMILES is read from it. * marks the point of attachment. pY = N[CH](Cc1ccc(OP(=O)(O)O)cc1)C(=O)O; Nicotinoyl = O=C(c1cccnc1)*
Reported IC50 values for a set of compounds
Give just the number in µM; leave the unit off.

compound	unit_symbol	IC50
Cc1cnc(C(=O)NC(Cc2ccc(OP(=O)(O)O)cc2)C(=O)NC(CC(C)C)C(=O)O)cn1 (stereo not drawn)	µM	38
Cc1ncccc1C(=O)NC(Cc1ccc(OP(=O)(O)O)cc1)C(=O)NC(CC(C)C)C(=O)O (stereo not drawn)	µM	75
COc1cccc(OC)c1C(=O)NC(Cc1ccc(OP(=O)(O)O)cc1)C(=O)NC(CC(C)C)C(=O)O (stereo not drawn)	µM	55
CC(C)CC(NC(=O)C(Cc1ccc(OP(=O)(O)O)cc1)NC(=O)c1cccnc1)C(=O)O (stereo not drawn) [ISS 219] (Nicotinoyl-[pY]-Leu-OH; configuration not given here)	µM	232

Turning now to a further record.
Which IC50 value is on record for CC(C)CC(NC(=O)C(Cc1ccc(OP(=O)(O)O)cc1)NC(=O)c1ccc2ccccc2c1)C(=O)O (stereo not drawn) ? 650
